targetEntity: E3 ubiquitin-protein ligase XIAP (Homo sapiens)
testSummary: small molecules binding XIAP protein – biophysical, small-molecule microarray, fluorescence 635 nm, primary screen (AID 1181);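 further: score merges 667 nm emission and signal to noise over triplicate slides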
conditionsUsed: higher = more signal
measurementKind: composite z-score
Answer field: number only, no words.

Example entries begin here.
- compound: "COc1ccc([Si](C)(C)[C@@H]2[C@@H](CC(=O)N3Cc4ccccc4C[C@H]3CO)O[C@]3(C(=O)N(Cc4cccc(N5C(=O)COc6ccccc65)c4)c4ccccc43)[C@H]2C)cc1"
  composite z-score: 0.188
- compound: "O=C1O[C@@H](c2ccccc2)[C@@H](c2ccccc2)N2[C@@H](c3ccc(O)cc3)[C@]3(C(=O)Nc4ccccc43)[C@@H](C(=O)NC[C@H](O)c3ccccc3)[C@H]12"
  composite z-score: 0.272
- compound: "C=C(COC)C(=O)CC[C@H](OC(=O)c1cccnc1)c1ccccc1OCCO"
  composite z-score: -0.0143
- compound: "CCCCN1CC=CC23O[C@@H]4C=CCCOC(=O)C4[C@H]2C(=O)N(CCCO)[C@@H]3C1=O (some centres undefined)"
  composite z-score: 0.268
- compound: "C=CCNC(=O)[C@@H]1[C@H]2C(=O)O[C@H](c3ccccc3)[C@H](c3ccccc3)N2[C@H](c2ccccc2OCCO)[C@@]12C(=O)N(C(=O)OCCOC)c1ccc(C#CCC(C(=O)OC)C(=O)OC)cc12"
  composite z-score: 0.666
- compound: "O=C1NC(=O)C2C1C=CC(C(O)c1cccs1)N2Nc1ccccn1 (centres undefined)"
  composite z-score: 0.174

Lookup: For `O=C1c2ccccc2[C@](Cc2ccccc2I)(C(=O)O)[C@H](c2ccc(CO)cc2)N1Cc1ccccc1C(F)(F)F` , what is its reported composite z-score?
Found: 0.12

Lookup: For `[N-]=[N+]=NCc1ccccc1C[C@]1(C(=O)N2CCOCC2)N=C(c2ccc(OCCCO)cc2)O[C@H]1c1ccccc1` , what is its reported composite z-score?
Found: -0.0884

Lookup: For `COC(=O)[C@@]1(Cc2ccc(F)cc2)[C@H]2c3cc(C(=O)N4CCCC4)n(Cc4ccc(Cl)c(C(F)(F)F)c4)c3C[C@H]2CN1C(=O)c1ccccc1` , what is its reported composite z-score?
Found: 0.553

* * *

targetEntity: Epidermal growth factor receptor (Homo sapiens)
testSummary: compounds binding epidermal growth factor receptor – biochemical, small-molecule microarray, 635 nm fluorescence, primary screen (AID 1104);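 further: score merges 667 nm emission intensity with spot signal to noise over triplicate slides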
conditionsUsed: EGFR binding, higher = more signal
Some molecules, each annotated with its measured composite z-score.
Answer field: number only, no words.

Example entries begin here.
- molecule: "C=C(COC)C(=O)CC[C@@H](OC(=O)c1ccccc1-c1ccccc1C(=O)O)c1ccc(CO)o1"
  readoutNumber: 0.109
- molecule: "COc1ccc(CCNC(=O)[C@@]2(C)c3ccccc3C(=O)N(Cc3ccccc3)[C@H]2c2ccc(CO)cc2)cc1"
  readoutNumber: 0.433
- molecule: "O=P(NCC1(CC2(c3ccccc3)CO2)CC1)(c1ccccc1)c1ccccc1 (centres undefined)"
  readoutNumber: -1.28
- molecule: "C=CCCN(CC#C[C@H]1Oc2ccccc2S(=O)(=O)N2CCC[C@@H]12)S(=O)(=O)c1ccc(C)cc1"
  readoutNumber: 0.185
- molecule: "C[N+](C)(C)CCCC[C@@H]1NC(=O)[C@H]2C[C@@H](C(=O)O)[C@@H](c3cccc(OCCO)c3)N2C1=O"
  readoutNumber: 1.17
- molecule: "C=CC[C@@]1(C(N)=O)N=C(c2ccc(OCCCO)cc2)O[C@@H]1c1ccccc1N=[N+]=[N-]"
  readoutNumber: 0.0347

Lookup: For `COc1ccc([Si](C)(C)[C@H]2[C@H](CC(=O)N(CCO)Cc3ccccc3)O[C@@]3(C(=O)N(Cc4cccc(N5C(=O)c6cccc7cccc5c67)c4)c4ccccc43)[C@@H]2C)cc1` , what is its reported composite z-score?
Found: 0.148

Lookup: For `COc1c(C)cc(-c2cc3c(c(-c4ccccc4)n2)[Si](C(C)C)(C(C)C)O[C@H]3c2ccccc2)cc1C` , what is its reported composite z-score?
Found: 0.0111

Lookup: For `Cc1ccc(S[C@]2(C(=O)NCCCN(C)C)CC(=O)N(C(C)C)[C@@H]2c2ccc(CO)cc2I)cc1` , what is its reported composite z-score?
Found: -0.228
